Answer each item with its documented pIC50.
Tested on: CCRF-CEM
PROCEDURE_DETAILS: MTS cytotoxicity assay, 72 h
Type: cell-based
SETTINGS: Homo sapiens, CCRF-CEM, 72 h, read-out: IC50 CCRF-CEM, MTS assay, 3-day incubation, mean ± SD of 3 experiments
Expect pIC50 as a plain number equal to -log10 of the molar concentration.

pIC50 reported for this molecule "COc1cc2c(c(OC)c1OC)-c1ccc(OC)c(=O)cc1[C@@H](n1cc(CCCCCCCCC3=C4C(C)=CC(C)=[N+]4[B-](F)(F)n4c(C)cc(C)c43)[n+](C)n1)CC2" : 5.15

pIC50 reported for this molecule "COc1cc2c(c(OC)c1OC)-c1ccc(OC)c(=O)cc1[C@@H](NC(=O)CCCCCCCCCCC1=C3C(C)=CC(C)=[N+]3[B-](F)(F)n3c(C)cc(C)c31)CC2" : 6.48

pIC50 reported for this molecule "COc1cc2c(c(OC)c1OC)-c1ccc(OC)c(=O)cc1[C@@H](n1cc(CCCCCCCCC3=C4C(C)=CC(C)=[N+]4[B-](F)(F)n4c(C)cc(C)c43)nn1)CC2" : 6.38

pIC50 reported for this molecule "COc1cc2c(c(OC)c1OC)-c1ccc(N(C)CCCCC3=C4C(C)=CC(C)=[N+]4[B-](F)(F)n4c(C)cc(C)c43)c(=O)cc1[C@@H](NC(C)=O)CC2" : 5.60

pIC50 reported for this molecule "COc1cc2c(c(OC)c1OC)-c1ccc(OC)c(=O)cc1[C@@H](n1cc(CCCC3=C4C(C)=CC(C)=[N+]4[B-](F)(F)n4c(C)cc(C)c43)nn1)CC2" : 7.70
